// data source = ChEMBL document CHEMBL4689842

system: Fibroblast; assay: Multiplex assay against human fibroblast; format: toxicity, cell-based; details: 24 h, 1 µM, compound concentration 1 uM, replicate 2
Exercise: state measured Population Hoechst High Intensity Objects (%) for each of the compounds provided.
One number for each entry, in %.

>>> print(df.to_string())
                                   compound  test_target  value_unit  numeric_value
0  O=c1[nH]c2ccccc2n1C1CCN(Cc2ccc(-c3[nH]c4cc5ncnc5cc4nc3-c3ccccc3)cc2)CC1   Fibroblast           %             31
1  CC1=C(C(=O)Nc2cc3cn[nH]c3cc2F)C(c2ccc(C(F)(F)F)cc2)CC(=O)N1 (stereo unspecified)   Fibroblast           %              4
2  CC(C)CC(=O)Nc1[nH]nc2c1CN(C(=O)C1CCN(C)CC1)C2(C)C   Fibroblast           %             37
3  COC(=O)C1=C(C)NC(C)=C(C(=O)OCCCN2CCC(c3ccccc3)(c3ccccc3)CC2)[C@H]1c1cccc([N+](=O)[O-])c1   Fibroblast           %              5
4  CCOC(=O)Nc1cc(-c2ccc(C)c(NS(C)(=O)=O)c2)nn2c(C)nnc12   Fibroblast           %             31
5  CC(C)NC(=O)N1CC[C@H](NC2=Nc3cc(F)ccc3N(CC(F)F)c3ccc(Cl)cc32)C1   Fibroblast           %              6
6  Cc1cccc(CN2CCN(C(c3ccccc3)c3ccc(Cl)cc3)CC2)c1.Cl.Cl (stereo unspecified)   Fibroblast           %             10
7  Cl.O=C(O)c1cc(-c2ccc(C3CCNCC3)cc2)c2ccc(-c3ccc(C(F)(F)F)cc3)cc2c1   Fibroblast           %              3
8  C=CC(=O)Nc1cccc(Sc2nc(Nc3ccc(N4CCN(C)CC4)cc3)ncc2Cl)c1   Fibroblast           %             23
9  Cc1ccc2c(c1)c1c(n2CCc2ccc(C)nc2)CCN(C)C1 [LATREPIRDINE]   Fibroblast           %             13

Field: Population Hoechst High Intensity Objects (%). Fill in for each record below.
1. CC(C)c1noc(N2CCC(COc3ccc(-c4ccc(S(C)(=O)=O)cc4)nc3)CC2)n1
2. C=CC(=O)Nc1ccc2[nH]c(=O)n(C3CCN(Cc4ccc(-c5nc6cc[nH]c(=O)c6cc5-c5ccccc5)cc4)CC3)c2c1
3. COc1ccc(-c2ccc3ncc4c(c3c2)n(-c2ccc(N3CCNCC3)c(C(F)(F)F)c2)c(=O)n4C)cn1.O=C(O)/C=C\C(=O)O
4. O=c1cc(N2CCOCC2)oc2c(-c3cccc4c3sc3ccccc34)cccc12
5. C=CC(=O)Nc1cccc(Oc2nc(Nc3ccc(N4CCN(C)CC4)cc3OC)ncc2Cl)c1
6. CCCSc1nc(N[C@@H]2C[C@H]2c2ccc(F)c(F)c2)c2nnn([C@@H]3C[C@H](OCCO)[C@@H](O)[C@H]3O)c2n1

Out:
1: 2; 2: 32; 3: 30; 4: 6; 5: 37; 6: 2

---

test system: HEK-293T; experiment: Multiplex assay against HEK293T; format: toxicity, cell-based; conditions: human, 12 h, 10 µM, compound concentration 10 uM, replicate 1
assay_endpoint: Total Cell Count
One number for each entry.

                                   compound  numeric_value
0  CN1CCN(Cc2ccc(Nc3ncc(Cl)c(Nc4ccccc4S(=O)(=O)N(C)C)n3)cc2)CC1            258
1  CC(C)CC(=O)Nc1[nH]nc2c1CN(C(=O)C1CCN(C)CC1)C2(C)C            585
2  CC(C)Oc1ccccc1C(=O)Nc1ccccc1C(=O)Nc1cccc(S(=O)(=O)C(F)(F)F)c1            300
3  CC(C)c1noc(N2CCC(COc3ccc(-c4ccc(S(C)(=O)=O)cc4)nc3)CC2)n1            276
4  C=CC(=O)Nc1ccc2[nH]c(=O)n(C3CCN(Cc4ccc(-c5nc6cc[nH]c(=O)c6cc5-c5ccccc5)cc4)CC3)c2c1            585
5  CNC(=O)Nc1ccc(-c2nc(N3CC4CCC(C3)O4)c3cnn(C4CCC5(CC4)OCCO5)c3n2)cc1            167

Field: Total Cell Count. Fill in for each record below.
1. CC(C)OC(=O)N1CCC(Oc2ncnc3c2cnn3-c2ccc(S(C)(=O)=O)cc2F)CC1
2. Cc1ccccc1C(c1ccccc1C)N1C2CCC1CC(O)(c1ccccc1)C2 (configuration not stated)

Out:
1: 186; 2: 350

---

Exercise: state measured Population Fragmented Nuclei (%) for each of the compounds provided.
test system: U2OS; assay: Multiplex assay against U2OS; type: toxicity, cell-based; conditions: human, 12 h, 10 µM, compound concentration 10 uM, replicate 1
One number for each entry, in %.

                                   compound  numeric_value
0  Cc1cccc(CN2CCN(C(c3ccccc3)c3ccc(Cl)cc3)CC2)c1.Cl.Cl (configuration not stated)              6
1  COc1ccccc1CN[C@H]1C2CCN(CC2)[C@H]1C(c1ccccc1)c1ccccc1 [CP-96345]             10
2  O=c1[nH]c2ccccc2n1C1CCN(Cc2ccc(-c3[nH]c4cc5ncnc5cc4nc3-c3ccccc3)cc2)CC1             19
3  CC(C)NC(=O)N1CC[C@H](NC2=Nc3cc(F)ccc3N(CC(F)F)c3ccc(Cl)cc32)C1             11
4  Cc1cc(NC(=O)c2cccc(S(F)(F)(F)(F)F)c2)cc(-n2ccn3nc(-c4cccnc4)cc23)c1 [BAY-309]              4

Field: Population Fragmented Nuclei (%). Fill in for each record below.
1. C=CC(=O)Nc1cccc(Sc2nc(Nc3ccc(N4CCN(C)CC4)cc3)ncc2Cl)c1
2. CC(C)c1noc(N2CCC(COc3ccc(-c4ccc(S(C)(=O)=O)cc4)nc3)CC2)n1 [GSK-1292263]
3. CC(C)CC(=O)Nc1[nH]nc2c1CN(C(=O)C1CCN(C)CC1)C2(C)C [PHA-793887]

Out:
5
16
17

Field: Population Fragmented Nuclei (%). Fill in for each record below.
1. CNC(=O)Nc1ccc(-c2nc(N3CC4CCC(C3)O4)c3cnn(C4CCC5(CC4)OCCO5)c3n2)cc1
2. CCCSc1nc(N[C@@H]2C[C@H]2c2ccc(F)c(F)c2)c2nnn([C@@H]3C[C@H](OCCO)[C@@H](O)[C@H]3O)c2n1 [TICAGRELOR]
3. Cc1c[nH]c2nccc(Oc3c(F)cc(Nc4cc(Cl)nc(N)n4)cc3F)c12 [BAY-549]
4. Cc1nc(N2CC[C@H](O)C2)ncc1-c1cc(C(F)(F)F)cc2[nH]ncc12
5. CCc1nn(CCCN2CCN(c3cccc(Cl)c3)CC2)c(=O)n1CCOc1ccccc1.Cl [NEFAZODONE HYDROCHLORIDE]
6. COc1cc(Nc2nccc(-c3cnn4nc(OC)ccc34)n2)cc(C(F)(F)F)c1
7. C=CC(=O)Nc1cccc(Oc2nc(Nc3ccc(N4CCN(C)CC4)cc3OC)ncc2Cl)c1

Out:
[26, 16, 20, 6, 13, 32, 5]

Field: Population Fragmented Nuclei (%). Fill in for each record below.
1. Cc1ccc(C)c(Oc2ccncc2C(=O)N2CCN(C3CC3)c3ccccc32)c1
2. Cc1ccc2c(c1)c1c(n2CCc2ccc(C)nc2)CCN(C)C1 [LATREPIRDINE]

Out:
[15, 11]

---

test system: HEK-293T; test: Incucyte cell viability with HEK293T; type: toxicity, cell-based; details: human, 24 h, 10 µM, compound concentration 10 uM, replicate number 1, timepoint 24 hours; note: filed as whole numbers so only -1 and 0 and 1 occur
assay_endpoint: Growth Rate

// worked examples, Growth Rate included
>>> df
                                   compound  assay_endpoint  result
0  O=C(O)C1CN(Cc2ccc(OCc3ccc(Cl)c(Cl)c3)cc2)C1     Growth Rate       0
1  CCc1nn(CCCN2CCN(c3cccc(Cl)c3)CC2)c(=O)n1CCOc1ccccc1.Cl [NEFAZODONE HYDROCHLORIDE]     Growth Rate       0
2  CC1(C)CCC(C)(C)c2cc(C(=O)Nc3ccc(C(=O)O)cc3)ccc21     Growth Rate       1

Field: Growth Rate. Fill in for each record below.
1. CCCOc1ccc([C@H]2[C@H](C(=O)O)[C@@H](c3ccc4c(c3)OCO4)CN2CC(=O)Nc2c(CC)cccc2CC)cc1
2. O=c1[nH]c2ccccc2n1C1CCN(Cc2ccc(-c3[nH]c4cc5ncnc5cc4nc3-c3ccccc3)cc2)CC1
3. C=CC(=O)Nc1ccc2[nH]c(=O)n(C3CCN(Cc4ccc(-c5nc6cc[nH]c(=O)c6cc5-c5ccccc5)cc4)CC3)c2c1
4. COC(=O)/C=C/c1cccc(N(Cc2ccc(-c3ccc(N(C)C)cc3)cc2)C(=O)C2CCCCC2)c1

Out:
1: 0; 2: 0; 3: 0; 4: 0

Field: Growth Rate. Fill in for each record below.
1. CN1C[C@H](Nc2cnn(C)c(=O)c2Br)C[C@H](c2ccccc2)C1
2. O=C(Cc1ccccc1)Nc1nc2ccc(Cl)cc2c2nc(-c3ccco3)nn12
3. CC#CC(=O)N1CCC[C@H]1c1nc(-c2ccc(C(=O)Nc3ccccn3)cc2)c2c(N)nccn12
4. C=CC(=O)Nc1cccc(Sc2nc(Nc3ccc(N4CCN(C)CC4)cc3)ncc2Cl)c1

Out:
0
0
0
0
